# assay-details: Quantitative High-Throughput drug screen in 47 multiple myeloma cell lines against the NCATS MIPE library collection: MMM1_PLB cell viability assay (AID 1918976); further: potency means the concentration at half of the fitted maximal effect; nearly all actives have a fitted effect of over 35% in size
# applied-conditions: MMM1 myeloma cells viability, CellTiter-Glo, 48 h; series mostly up to 45.8 µM
Results filed as inconclusive are left out. Active and inactive are the calls of the source. The call rests on the fitted dose curve; in most records, active means well fitted cell-killing curve with a large enough effect; inconclusive means small, poorly fitted or top-dose-only effect, or effect the other way; inactive means no such curve, though single readings can be large or run the other way.
endpoint-label: Potency

Please give the measured Potency for this molecule: O=C(O)c1ccc2c(c1)nc(Nc1cccc(Cl)c1)c1ccncc12 14.8 µM (active)

Record: Cc1cc(Nc2cc(N3CCN(C)CC3)nc(C=Cc3ccccc3)n2)n[nH]1 30.3 µM (active)

What do you get for COc1cc(C(=O)N2CCC(N3CCN(C)CC3)CC2)ccc1Nc1ncc2c(n1)N(C)c1ccccc1C(=O)N2C ? 1.66 µM (active)

Same read-out for COc1ccc(F)c(F)c1C(=O)c1cnc(NC2CCN(S(C)(=O)=O)CC2)nc1N ? 2.64 µM (active)

Here is the next molecule: Fc1cc(-c2cccc3ncc(-c4cnn(C5CCNCC5)c4)nc23)cc(F)c1CN1CCOCC1 23.5 µM (active)

Would you kindly repeat that for CNc1nccc(-c2cccnc2Oc2cc(C(=O)Nc3cccc(C(F)(F)F)c3)ccc2C)n1 ? 18.7 µM (active)

Another molecule to check: NCC(=O)Nc1ccc(-n2nc(C(F)(F)F)cc2-c2ccc3c(ccc4ccccc43)c2)cc1 23.5 µM (active)

Same lookup for CC(C)C[C@H](NC(=O)CNC(=O)c1cc(Cl)ccc1Cl)B(O)O , please. 9.35 µM (active)

Do the same for COc1ccc2c(c1)CC[C@@H](CN(C)CC(=O)O)[C@H]2c1ccccc1 please 14.8 µM (active)

Now the molecule CN[C@H]1CCc2cc(OC)c(OC)c(OC)c2-c2ccc(OC)c(=O)cc21 0.0105 µM (active)

* * *

# assay-details: qHTS of pediatric cancer cell lines to identify multiple opportunities for drug repurposing: Primary screen for BT-12 cells (AID 1347101); further: nearly all actives have a fitted effect of over 25% in size; further: potency means the concentration at half of the fitted maximal effect
# applied-conditions: BT-12 viability, CellTiter-Glo luminescence, 48 h; series mostly up to 57.3 µM
Results filed as inconclusive are left out. Activity calls are given as the source filed them. Calls follow the shape of the dose curve; as a rule, active = well fitted cell-killing curve with a large enough effect; inconclusive = small, poorly fitted or top-dose-only effect; inactive = flat fitted curve, though single readings scatter.
endpoint-label: Potency

Would you please look over these solved cases?
[[record]]
compound = "Cc1cc(N2CCOCC2)cc2[nH]c(-c3c(NC[C@@H](O)c4cccc(Cl)c4)cc[nH]c3=O)nc12"
endpoint_label = "Potency"
reported_result = "24.3 µM (active)"

[[record]]
compound = "Cc1coc2c1C(=O)C(=O)c1c-2ccc2c1CCCC2(C)C"
endpoint_label = "Potency"
reported_result = "21.7 µM (active)"

[[record]]
compound = "OCCCNc1cc(-c2ccnc(Nc3cccc(Cl)c3)n2)ccn1"
endpoint_label = "Potency"
reported_result = "0.193 µM (active)"

[[record]]
compound = "Fc1cc(-c2cccc3ncc(-c4cnn(C5CCNCC5)c4)nc23)cc(F)c1CN1CCOCC1"
endpoint_label = "Potency"
reported_result = "27.3 µM (active)"

[[record]]
compound = "COc1cccc(-c2ccc(NC(=O)C3=C(C(=O)O)CCC3)c(F)c2)c1"
endpoint_label = "Potency"
reported_result = "19.3 µM (active)"


GET /values?readout=Potency&item= COC(=O)Nc1ccc(-c2nc(N3CCOCC3)c3cnn(C4CCN(Cc5cccnc5)CC4)c3n2)cc1 1.09 µM (active)

Follow-up entry: CN1CC[C@@H](c2c(O)cc(O)c3c(=O)cc(-c4ccccc4Cl)oc23)[C@@H](O)C1 0.122 µM (active)

Please do the same for Nc1nccc(Oc2ccc(NC(=O)c3c[nH]cc(-c4ccc(F)cc4)c3=O)cc2F)c1Cl as well. 13.7 µM (active)

Cool, now Cc1[nH]c2ccccc2c1CCNCc1ccc(C=CC(=O)NO)cc1 0.611 µM (active)

And the next one, O=C1CCC[C@@H]2[C@H]3CCC[N+]4([O-])CCC[C@@H](CN12)[C@@H]34 (some centres undefined) ? inactive

Try CC(NCc1ccc2c(c1)nc(NC(=O)c1ccc(-c3cn[nH]c3)s1)n2CC(C)(C)O)C(C)(C)C (centres undefined) next. 0.968 µM (active)

Follow-up entry: CC(C)(C)c1cnc(CSc2cnc(NC(=O)C3CCNCC3)s2)o1 0.432 µM (active)

Ok, now O=C(CCCCCCNC(=O)c1cnc(N(c2ccccc2)c2ccccc2)nc1)NO 17.2 µM (active)

Now consider CC(=O)OCC(=O)[C@@]1(O)[C@H](C)C[C@H]2[C@@H]3C=C(C)C4=Cc5c(cnn5-c5ccccc5)C[C@]4(C)[C@@H]3[C@@H](O)C[C@@]21C . 21.7 µM (active)

FYI, the data here is from PubChem BioAssay (NCATS).
